Provenance of the data: ChEMBL document CHEMBL5120757

system: UniProtKB Q06124
Sequence (Q06124 whole entry): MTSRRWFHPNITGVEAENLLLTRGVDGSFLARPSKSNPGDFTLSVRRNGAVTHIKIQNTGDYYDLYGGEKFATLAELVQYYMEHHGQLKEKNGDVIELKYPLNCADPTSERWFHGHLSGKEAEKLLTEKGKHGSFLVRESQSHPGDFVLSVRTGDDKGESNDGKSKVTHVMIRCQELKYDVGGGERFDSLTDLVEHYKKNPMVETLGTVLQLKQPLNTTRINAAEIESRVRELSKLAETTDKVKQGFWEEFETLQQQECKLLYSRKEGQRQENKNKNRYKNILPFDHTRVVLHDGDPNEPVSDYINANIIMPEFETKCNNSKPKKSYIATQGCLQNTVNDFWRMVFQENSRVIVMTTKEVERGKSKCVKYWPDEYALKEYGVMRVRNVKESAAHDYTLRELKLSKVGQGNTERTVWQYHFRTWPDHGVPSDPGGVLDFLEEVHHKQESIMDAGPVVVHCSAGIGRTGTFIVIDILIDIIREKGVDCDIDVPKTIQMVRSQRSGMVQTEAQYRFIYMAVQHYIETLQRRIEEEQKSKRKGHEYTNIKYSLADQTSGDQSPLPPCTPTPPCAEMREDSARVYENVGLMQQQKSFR
methodDescription: Inhibition of SHP2 (unknown origin)
measuredEndpoint: IC50 (µM)
Give bare numbers, in µM.

Some compounds with recorded IC50:
COC(=O)c1cc(NC2=NC(=O)/C(=C/c3ccc(C)cc3)S2)ccc1O	0.05
O=C(O)c1cc(O)c(=O)c2c(O)c(O)ccc2c1 [7-DESHYDROXYPYROGALLIN-4-CARBOXYLIC ACID]	2.1
NC(=O)c1cc[n+](CC2=C(C(=O)O)N3C(=O)[C@@H](NC(=O)[C@@H](c4ccccc4)S(=O)(=O)O)[C@@H]3SC2)cc1	16.8

Quick check: IC50 on UniProtKB Q06124, item C=C/C(=C/C(=O)C[C@H](C)C[C@@H](C)CC[C@H](O)[C@H](C)C(=O)C[C@@H](O)[C@H](C)[C@@H](C)OC(=O)C[C@@H](O)/C(C(=O)O)=C(\C)C(=O)O)CC ?
29
